- experimentalSystem: GSK3β (Homo sapiens)
- Sequence (P49841 whole entry): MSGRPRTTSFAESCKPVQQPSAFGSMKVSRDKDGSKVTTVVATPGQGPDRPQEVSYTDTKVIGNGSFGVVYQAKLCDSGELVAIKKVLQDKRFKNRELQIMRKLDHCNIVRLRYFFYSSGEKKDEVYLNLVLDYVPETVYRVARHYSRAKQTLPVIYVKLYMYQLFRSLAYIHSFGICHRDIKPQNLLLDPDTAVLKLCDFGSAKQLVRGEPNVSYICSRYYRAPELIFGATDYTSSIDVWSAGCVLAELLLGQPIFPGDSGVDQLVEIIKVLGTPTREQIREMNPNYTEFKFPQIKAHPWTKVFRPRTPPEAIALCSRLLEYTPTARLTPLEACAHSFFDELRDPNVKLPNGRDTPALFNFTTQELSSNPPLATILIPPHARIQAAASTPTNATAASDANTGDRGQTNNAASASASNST
- assayMethodText: GSK3β radiolabelled kinase assay (% residual activity, IC50, ATP competition)
- Format: biochemical
- condition: ATP 100 µM; 10-dose, threefold dilution from 10 μM; read-out: IC50 of GSK3β activity
endpointName: IC50 (µM)
API: value field is a number in µM; no unit string.

(Q) Item: O=C1C=CC2(C=C1)OCC(Cc1cn(-c3cccc(Cc4ccccc4)c3)nn1)C(=O)N2c1ccccc1 (stereo not shown) Test system: GSK3β (Homo sapiens) Read-out: IC50 Value: ?
(A) 4.04

====

- experimentalSystem: EIF2AK1 (Homo sapiens)
- Construct: purchased Reaction Biology Corp
- Sequence (Q9BQI3 whole entry): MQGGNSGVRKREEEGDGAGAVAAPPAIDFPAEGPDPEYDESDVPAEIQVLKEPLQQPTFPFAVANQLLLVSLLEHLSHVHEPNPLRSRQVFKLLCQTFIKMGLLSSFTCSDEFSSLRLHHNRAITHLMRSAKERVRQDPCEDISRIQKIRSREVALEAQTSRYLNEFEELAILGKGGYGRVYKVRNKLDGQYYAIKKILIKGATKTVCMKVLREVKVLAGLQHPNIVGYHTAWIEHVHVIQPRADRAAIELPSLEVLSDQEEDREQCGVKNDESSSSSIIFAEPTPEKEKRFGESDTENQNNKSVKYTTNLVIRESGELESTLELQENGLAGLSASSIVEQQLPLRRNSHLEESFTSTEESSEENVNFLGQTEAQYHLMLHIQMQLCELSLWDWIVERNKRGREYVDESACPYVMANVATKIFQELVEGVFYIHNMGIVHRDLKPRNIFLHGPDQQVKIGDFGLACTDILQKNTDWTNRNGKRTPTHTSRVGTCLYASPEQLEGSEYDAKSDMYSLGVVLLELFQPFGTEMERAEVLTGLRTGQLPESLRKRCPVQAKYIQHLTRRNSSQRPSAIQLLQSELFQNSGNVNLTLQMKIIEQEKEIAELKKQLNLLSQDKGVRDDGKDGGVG
- assayMethodText: Kinase panel assay (radiolabelled)
- Type: biochemical
- condition: control GSK-2606414
endpointName: IC50 (µM)
API: value field is a number in µM; no unit string.

(Q) Item Cn1cc(-c2ccc3c(c2)CCN3C(=O)Cc2cccc(C(F)(F)F)c2)c2c(N)ncnc21 [GSK-2606414, reference compound] has what recorded IC50?
(A) 0.106
